Let's go through some recorded IC50 values for BTK wild-type kinase (Homo sapiens (Human), UniProt Q06187) together.

I am curious: what IC50 value has been reported for Nc1nccc2c1n(-c1ccc(Oc3ccccc3)cc1)c(=O)n2C1CCC(CO)OC1 (centres unmarked) ?
20 to 100 nM

// repeat for Nc1nccn2c(C3CCC(CO)OC3)nc(-c3ccc(C(=O)Nc4cc(C(F)(F)F)ccn4)cc3F)c12 (centres unmarked) and report
< 5 nM

* * *

Item-by-item account of microsomal CLint
Assay remarks: Liver microsome metabolic stability test, human
Assay type: in vitro ADME
Measurement parameters: liver microsomes

compound="Nc1nccn2c(C3CCC(CO)OC3)nc(-c3ccc(C(=O)Nc4cc(C(F)(F)F)ccn4)cc3)c12 (single isomer, unassigned) [Compound 109-P1]" obs_value="< 9.6 µL/min/mg"

Consider now this further compound.
I am curious: what microsomal CLint value has been reported for COc1ccccc1C(=O)NCc1ccc(-c2nn(C3CCC(CO)OC3)c3ncnc(N)c23)cc1 (single isomer, unassigned) [Compound 60-A] ?
< 9.6 µL/min/mg

* * *

Assay remarks: Liver microsome metabolic stability test, human
Format: in vitro ADME
Measurement parameters: liver microsomes, 0.5 mg/mL protein, read-out: T½
Quantity kind: half-life (h)

Here's what some known entries look like.
compound="Cc1cc(Nc2ncnc3ccc(NC4=NC(C)(C)CO4)cc23)ccc1Oc1ccn2ncnc2c1 [Tucatinib, reference compound]" obs_value=0.53
compound="Nc1nccn2c(C3CCC(CO)OC3)nc(-c3ccc(Oc4ccccc4)cc3)c12 (stereo not shown)" obs_value=0.625
compound="Nc1nccn2c(C3CCC(CO)OC3)nc(-c3ccc(C(F)(F)c4ccccc4)cc3)c12 (stereo not shown)" obs_value=2.12

a = Nc1nccn2c(C34CCC(CO)(CC3)OC4)nc(-c3ccc(C(F)(F)c4cccc(Cl)c4F)cc3)c12
b = CC#CC(=O)N1CC[C@@H](n2c(=O)n(-c3ccc(Oc4ccccc4)cc3)c3c(N)ncnc32)C1 [Tirabrutinib, reference compound]
Rank a against b by their half-life values and give the higher one. Could you answer with the label of the item you picked?
b

* * *

Assay remarks: Liver microsome metabolic stability test, human
Type: in vitro ADME
Measurement parameters: 60 min
Quantity kind: %Remaining (60 min) (%)

Here's what some known entries look like.
compound="Nc1nccn2c(C3CCC(CO)OC3)nc(-c3ccc(Cc4ccccc4)cc3)c12 (stereo not drawn) [Compound 106]" obs_value=66.3
compound="Nc1nccn2c(C3CCC(CO)OC3)nc(-c3ccc(Oc4cccc(Cl)c4F)cc3)c12 (stereo not drawn) [Compound 9]" obs_value=24.5
compound="N#Cc1ccnc(NC(=O)c2ccc(-c3nc(C4CCC(CO)OC4)n4ccnc(N)c34)cc2)c1 (stereo not drawn) [Compound 103]" obs_value=100.3

1 = Nc1nccn2c(C3CCC(CO)OC3)nc(-c3ccc(Oc4cccc(C(F)(F)F)c4F)cc3)c12 (stereo not drawn) [Compound 19]
2 = O=C(c1ccc(Oc2ccccc2)cc1Cl)c1c[nH]c2ncnc(N[C@@H]3CC[C@@H](CO)OC3)c12 [ARQ-531, reference compound]
3 = Nc1nccn2c(C3CCC(CO)OC3)nc(-c3ccc(C(=O)c4ccccc4)cc3)c12 (stereo not drawn) [Compound 26]
Your job: order these 3 records by %Remaining (60 min), ascending. Please reply with the labels ordered as requested. Many thanks.
1, 3, 2
(1: 23.5%, 3: 39.1%, 2: 94.2%)

* * *

Assay remarks: Liver microsome metabolic stability test, rat
Format: in vitro ADME
Measurement parameters: liver microsomes, 0.5 mg/mL protein, read-out: T½
Quantity kind: half-life

compound="Nc1nccn2c(C34CCC(CO)(CC3)OC4)nc(-c3ccc(C(=O)Nc4ccccn4)cc3)c12 [Compound 34]" quantity_kind=half-life obs_value="> 2.42 h"
compound="N#Cc1ccnc(NC(=O)c2ccc(-c3nc(C4CCC(CO)OC4)n4ccnc(N)c34)cc2)c1 (stereo not drawn) [Compound 103]" quantity_kind=half-life obs_value="> 2.42 h"

Consider now this further compound.
I am curious: what half-life value has been reported for O=C(c1ccc(Oc2ccccc2)cc1Cl)c1c[nH]c2ncnc(N[C@@H]3CC[C@@H](CO)OC3)c12 [ARQ-531, reference compound] ?
> 2.42 h

* * *

Item-by-item account of pIC50
Tested target: BTK wild-type kinase (Homo sapiens (Human), UniProt Q06187)
Sequence (Q06187 whole entry): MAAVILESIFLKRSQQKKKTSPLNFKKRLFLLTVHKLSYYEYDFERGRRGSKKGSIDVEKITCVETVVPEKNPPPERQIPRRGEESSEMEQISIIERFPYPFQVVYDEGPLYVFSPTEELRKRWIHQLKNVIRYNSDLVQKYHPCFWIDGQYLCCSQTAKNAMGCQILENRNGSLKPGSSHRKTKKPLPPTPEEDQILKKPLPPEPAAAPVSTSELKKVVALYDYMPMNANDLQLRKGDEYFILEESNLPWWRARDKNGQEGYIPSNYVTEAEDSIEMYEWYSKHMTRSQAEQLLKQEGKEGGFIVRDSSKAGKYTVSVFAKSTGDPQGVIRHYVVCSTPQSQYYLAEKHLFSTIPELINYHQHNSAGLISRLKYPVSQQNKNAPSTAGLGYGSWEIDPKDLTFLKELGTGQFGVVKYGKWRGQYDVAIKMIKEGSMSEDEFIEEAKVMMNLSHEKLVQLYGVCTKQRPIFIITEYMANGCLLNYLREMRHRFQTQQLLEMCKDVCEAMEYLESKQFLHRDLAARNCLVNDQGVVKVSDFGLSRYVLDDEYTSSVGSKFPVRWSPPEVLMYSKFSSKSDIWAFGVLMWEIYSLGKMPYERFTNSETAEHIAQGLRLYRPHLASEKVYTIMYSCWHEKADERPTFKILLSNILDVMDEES
pIC50: −log10 of the molar value.

I am curious: what pIC50 value has been reported for [2H]C([2H])([2H])Oc1cccc(Oc2ccc(-c3nc(C4CCC(CO)OC4)n4ccnc(N)c34)cc2)c1F (stereo not drawn) ?
> 8.30

// repeat for COc1cccc(Oc2ccc(-c3nn(C4CCC(CO)OC4)c4c(Cl)cnc(N)c34)cc2)c1F (stereo not drawn) and report
7.70 to 8.30

// repeat for Nc1nccn2c(C3CCC(CO)OC3)nc(-c3ccc(Oc4ccc(C5CC5)cc4F)cc3)c12 (stereo not drawn) and report
7.00 to 7.70

// repeat for Nc1nccn2c(C3CCC(CO)OC3)nc(-c3ccc(C(=O)Nc4cccc(Br)n4)cc3)c12 (stereo not drawn) and report
6.00 to 7.00

// repeat for Nc1nccn2c(C3CCC(CO)OC3)nc(-c3cnc(Nc4cccc(OC(F)(F)F)c4)nc3)c12 (stereo not drawn) and report
< 6.00

// repeat for `COc1cccc(Oc2ccc(-c3nc(C45CCC(CO)(CC4)OC5)n4ccnc(N)c34)cc2)c1C#N` and report
> 8.30

// repeat for COc1ccc(C#N)c(Oc2ccc(-c3nc(C4CCC(CO)OC4)n4ccnc(N)c34)cc2)c1 (stereo not drawn) and report
7.00 to 7.70

// repeat for COc1cccc(Oc2ccc(-c3nn(C4CCC(CO)OC4)c4ncnc(N)c34)cc2)c1F (stereo not drawn) and report
7.70 to 8.30

// repeat for Nc1nccn2c(C3CCC(CO)OC3)nc(-c3ccc(C(F)(F)c4ccccc4)cc3)c12 (single isomer, unassigned) [Compound 111-P1] and report
> 8.30

// repeat for `Nc1ncc(Cl)n2c(C34COC(CO)(C3)C4)nc(-c3ccc(C(=O)Nc4ccccn4)cc3F)c12` and report
7.00 to 7.70

// repeat for `Nc1nccn2c(C34CCC(CO)(CC3)OC4)nc(-c3ccc(C(=O)Nc4ccccn4)cc3)c12` and report
7.70 to 8.30

// repeat for Nc1nccn2c(C3CCC(CO)OC3)nc(-c3ccc(C(=O)Nc4cc(C(F)(F)F)ccn4)cc3)c12 (single isomer, unassigned) [Compound 109-P1] and report
> 8.30

* * *

Let's go through some recorded IC50 values for BTK wild-type kinase (Homo sapiens (Human), UniProt Q06187) together.

Here's what some known entries look like.
compound="Nc1ncc(Cl)n2c(C3CCC(CO)OC3)nc(-c3ccc(C(=O)Nc4ccccn4)cc3)c12 (stereo not drawn) [Compound 3]" obs_value="20 to 100 nM"
compound="COc1c(F)ccc(Oc2ccc(-c3nc(C4CCC(CO)OC4)n4ccnc(N)c34)cc2)c1F (stereo not drawn) [Compound 20]" obs_value="5 to 20 nM"
compound="Nc1nccn2c(C3CCC(CO)OC3)nc(-c3ccc(Oc4ccccc4)cc3F)c12 (stereo not drawn) [Compound 17]" obs_value="5 to 20 nM"
compound="Nc1nccn2c([C@@H]3CC[C@H](CO)OC3)nc(-c3ccc(C(=O)Nc4ccccn4)cc3)c12 (single isomer, unassigned) [Compound 2-A-P1]" obs_value="< 5 nM"

Identify the measured IC50 of Nc1nccn2c(C3CCC(CO)OC3)nc(-c3ccc(C(=O)c4ccc(Cl)cc4)cc3)c12 (stereo not drawn) [Compound 102] for BTK wild-type kinase (Homo sapiens (Human), UniProt Q06187).
20 to 100 nM

// repeat for N#Cc1ccnc(NC(=O)c2ccc(-c3nc(C45COC(CO)(C4)C5)n4ccnc(N)c34)cc2)c1 [Compound 135] and report
5 to 20 nM

// repeat for Nc1nccn2c(C3CCC(CO)OC3)nc(-c3ccc(C(F)(F)c4cccc(F)c4F)cc3)c12 (stereo not drawn) [Compound 127] and report
5 to 20 nM

// repeat for CNc1ccccc1C(=O)c1ccc(-c2nc(C3CCC(CO)OC3)n3ccnc(N)c23)cc1 (stereo not drawn) [Compound 67] and report
100 to 1000 nM

// repeat for Nc1nccn2c(C3CCC(CO)OC3)nc(-c3ccc(C(=O)Nc4ccc(Cl)cn4)cc3)c12 (stereo not drawn) [Compound 68] and report
20 to 100 nM

// repeat for Nc1nccn2c(C3CCC(CO)OC3)nc(-c3ccc(C(=O)Nc4cc(C(F)(F)F)ccn4)cc3)c12 (single isomer, unassigned) [Compound 109-P2] and report
< 5 nM

// repeat for Nc1nccn2c(C34CCC(CO)(CC3)OC4)nc(-c3ccc(C(F)(F)c4ccccc4Cl)cc3)c12 [Compound 155] and report
100 to 1000 nM

// repeat for COc1cccc(Oc2ccc(-c3nc(C4CCC(CO)OC4)n4c(Cl)cnc(N)c34)cc2)c1C#N (stereo not drawn) [Compound 100] and report
< 5 nM

// repeat for Nc1nccn2c(C3CCC(CO)OC3)nc(-c3ccc(C(=O)c4ccccc4O)cc3)c12 (stereo not drawn) [Compound 66] and report
20 to 100 nM

// repeat for Nc1nccn2c(C34CCC(CO)(CC3)OC4)nc(-c3ccc(C(F)(F)c4ccccc4)cc3)c12 [Compound 125] and report
5 to 20 nM

// repeat for Nc1nccn2c(C34CCC(CO)(CC3)OC4)nc(-c3ccc(C(F)(F)c4cccc(F)c4)cc3)c12 [Compound 142] and report
100 to 1000 nM
